Biological target: T1, FMDV O/Mya/98 146S antigen (Foot-and-mouth disease virus serotype …, UniProt G8JKC2, strain)
T1 construct: also called purified virus antigen; copies: + + +
Assay: ELISA
Settings: both partners purified
MEASURED_ATTRIBUTE: binding result

E28 (antibody, V domains shown) VH: QVQLRESGPSLVKPSQTLSLTCTISGFSLSDYAVAWVRQAPGKAPEWVGGISTGGRTNYNPTLESRLSITKDNAKSQISLTVSSVTPEDTATYLCLRLACYDHEGYRCFGYDLNWGVDAWGQGLLVSVSS VL: QAVLTQPSSVSGSLGQRVSITCSGSSTNIGTYYVGWYQQVPGSGLRTIIYGTTNRPSGVPDRFSGSKSSGNTATLTISSLQAEDEADYFCVTYDSTITPSAVFGSGTTLTVL :: binds
A7 (antibody, V domains shown) VH: QVQLRESGPSLVKPSQTLSLTCTVSGFSLSSYAVNWVRQAPGKALECLGGISSSGSTGYKPALKSRLSITKDNSKSQVSLSVSNVTPEDTATYYCVKSYWDYNDYGCCSGGNGVGFDAWGQGLLVTVSS VL: QAVLTQPSSVSGSLGQRVSITCSGSSNNIGSYAVGWYQQVPGSGLRTIIYSSSSRPSGVPDRFSGSKSGNTATLTISSLQAEDEADYFCATADYSRSTAVFGSGTILTVL :: binds
